biological target: T1, human CD8 alpha (CD8A) on primary human CD8+ T cells (human, UniProt P01732 22-235); assay: flow cytometry, human CD8+ T cells
T1 construct: whole, on cells; also called hCD8A
T1 sequence (P01732 22-235): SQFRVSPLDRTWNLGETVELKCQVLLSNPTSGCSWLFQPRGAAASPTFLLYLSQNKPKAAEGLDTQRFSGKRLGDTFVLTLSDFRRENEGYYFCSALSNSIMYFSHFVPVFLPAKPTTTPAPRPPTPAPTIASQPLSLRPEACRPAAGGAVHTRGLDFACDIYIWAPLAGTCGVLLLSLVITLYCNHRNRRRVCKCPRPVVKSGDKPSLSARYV
QUANTITY NAME: Human T-cell Binding 0.2 uM (MFI)
Write the value in MFI as a bare number.

Bench note: what Human T-cell Binding 0.2 uM (MFI) did P283FR9P1366_A9 (designed binder, FN3 domain) LPAPKNLVVSRVTEDSARLSWTAPDAAFDSFNIAYGEYPGPGEAIVLTVPGSERSYDLTGLKPGTEYWVPIWGVKGGELSEPLSAIFTT show?
252

Entry to check: P283FR9P1366_G8 (designed binder, FN3 domain) LPAPKNLVVSRVTEDSARLSWTAPDAAFDSFDIAYPELPIGGEAIVLTVPGSERSYDLTGLKPGTEYFVVIYGVKGGIHSAPLSAIFTT
574

Entry to check: P283FR9P1366_H11 (designed binder, FN3 domain) LPAPKNLVVSRVTEDSARLSWTAPDAAFDSFQIQYLETAPDGEAIVLTVPGSERSYDLTGLKPGTEYYVWIPGVKGGAFSPLSAIFTT
2330

Entry to check: P283FR9P1366_D6 (designed binder, FN3 domain) LPAPKNLVVSRVTEDSARLSWTAPDAAFDSFNIFYPELVFPGEAIVLTVPGSERSYDLTGLKPGTEYWVNISGVKGGEHSWPLSAIFTT
4550

Entry to check: P283FR9P1366_H7 (designed binder, FN3 domain) LPAPKNLVVSRVTEDSARLSWTAPDAAFDSFQIAYPEYPALGEAIVLTVPGSERSYDLTGLKPGTEYFVIIAGVKGGIQSWPLSAIFTT
567
